Molecular target: TbPTR1 (Trypanosoma brucei brucei)
Construct: His6 (N); made in house; host or cells: E. coli BL21 (DE3), vector pET 15b::TbPTR1His (strain from the group of M. Paola Costi, Modena)
Sequence (O76290 1-268): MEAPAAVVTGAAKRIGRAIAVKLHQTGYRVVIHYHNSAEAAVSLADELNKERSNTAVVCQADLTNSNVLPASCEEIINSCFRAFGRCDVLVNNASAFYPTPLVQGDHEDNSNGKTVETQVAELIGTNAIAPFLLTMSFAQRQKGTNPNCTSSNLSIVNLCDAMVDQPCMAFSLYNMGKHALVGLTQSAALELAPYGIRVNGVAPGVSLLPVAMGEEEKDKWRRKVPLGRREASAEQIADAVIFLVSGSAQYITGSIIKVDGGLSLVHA
Assay: Spectrophotometric enzyme inhibition assay, recombinant TbPTR1
Format: biochemical
IC50 values by entry
result-type: IC50

>>> observed("O=C(/C=C/c1ccc(O[C@@H]2O[C@H](CO)[C@@H](O)[C@H](O)[C@H]2O)cc1)c1ccc(O)cc1O [Compound 7, isoliquiritin]")
"> 100 µM"
>>> observed("CC(C)=CCc1c(O)cc2oc3cc(O)c(O)c(CC=C(C)C)c3c(=O)c2c1O [Compound 14, g-mangostin]")
"71 µM"
>>> observed("COc1cc([C@@H]2Oc3cc(-c4oc5cc(O)cc(O)c5c(=O)c4O)ccc3O[C@H]2CO)ccc1O [Compound 4, 2,3-dehydrosilybin B]")
"> 100 µM"
